measurement.target: Luciferin 4-monooxygenase (Photinus pyralis)
assay.text: qHTS assay to identify small molecule inhibitors of firefly luciferase (AID 1224835); also: nearly all actives have a fitted effect of over 25% in size
assay.setup: purified P. pyralis luciferase, luminescence inhibition; series mostly up to 115 µM
Inconclusive results are not listed. Calls of active or inactive are those of the source. Calls follow the shape of the dose curve; as a rule, active = well fitted inhibition curve with a large enough effect in the repeat runs; inconclusive = weak or mixed curves; inactive = flat fitted curve, though single readings scatter.
Outcomes: active, inactive

molecule: CC(C)(O)CCc1ccccc1
label.class: inactive
//
molecule: CCCCOCCOC(=O)c1cccnc1
label.class: inactive
//
molecule: O=C(O)c1ccc(O)cc1O
label.class: inactive
//
molecule: CC(C)(C)C1(CCc2ccc(Cl)cc2)CO1 (stereo not drawn)
label.class: inactive
//
molecule: Nc1ccc(NC(=O)c2ccc(N)cc2)cc1
label.class: active
//
molecule: Cc1oc(=O)oc1COC(=O)[C@@H]1N2C(=O)[C@@H](NC(=O)[C@H](N)c3ccccc3)[C@H]2SC1(C)C
label.class: inactive
//
molecule: O=C1OC(=O)c2c(Br)c(Br)c(Br)c(Br)c21
label.class: inactive
//
molecule: O=C(Nc1ccc(C(=O)O)c(O)c1)c1ccccc1
label.class: active
//
molecule: CC(=O)NNC(C)=O
label.class: inactive
//
molecule: COc1cc(NCc2ccc3nc(N)nc(N)c3c2C)cc(OC)c1OC
label.class: inactive
//
molecule: CCO[Si](C)(CCCOCC1CO1)OCC (stereo not drawn)
label.class: inactive
//
molecule: CC(=O)OCC(C)C
label.class: inactive
//
molecule: CCOC(=O)c1c(N)sc2c1CCN(Cc1ccccc1)C2
label.class: inactive
//
molecule: CC(C)N=C=NC(C)C
label.class: inactive
//
molecule: O=S(=O)(Cl)c1c(Cl)cccc1Cl
label.class: inactive
//
molecule: CC(C(=O)O)c1ccc(C(=O)c2cccs2)cc1 (stereo not drawn)
label.class: inactive
//
molecule: CC(C)CC(O)CC(C)C
label.class: inactive
//
molecule: CC(O)Cn1cnc2c1c(=O)n(C)c(=O)n2C (stereo not drawn)
label.class: inactive
//
molecule: CCCc1nc2c(C)cc(-c3nc4ccccc4n3C)cc2n1Cc1ccc(-c2ccccc2C(=O)O)cc1
label.class: active
//
molecule: O[C@@H](CNC[C@H](O)[C@H]1CCc2cc(F)ccc2O1)[C@@H]1CCc2cc(F)ccc2O1
label.class: inactive
//
molecule: CC(=O)OCC(=O)[C@@]1(OC(C)=O)[C@@H](C)C[C@H]2[C@@H]3C[C@H](F)C4=CC(=O)C=C[C@]4(C)[C@@]3(F)[C@@H](O)C[C@@]21C
label.class: inactive
//
molecule: O=C(O)CNC(=O)c1ccccc1I
label.class: inactive
//
molecule: O=c1[nH]c2cc(C(F)(F)F)c(N3CCOCC3)cc2n(CP(=O)(O)O)c1=O
label.class: inactive
//
molecule: COc1ccc(C2C(=O)c3ccccc3C2=O)cc1
label.class: active
//
molecule: CC(C)c1ccc(C(=O)N=C(N)N)cc1S(C)(=O)=O
label.class: inactive
//
molecule: CCN(CC)CCNC(=O)c1cc(Cl)c(N)cc1OC
label.class: inactive
//
molecule: CCC(C)(C)C(=O)O
label.class: inactive
//
molecule: O=C(O)/C=C/c1ccc(O)c(O)c1
label.class: inactive

====

measurement.target: Estrogen receptor (Homo sapiens) (UniProt P03372)
Sequence (P03372 whole entry, looked up): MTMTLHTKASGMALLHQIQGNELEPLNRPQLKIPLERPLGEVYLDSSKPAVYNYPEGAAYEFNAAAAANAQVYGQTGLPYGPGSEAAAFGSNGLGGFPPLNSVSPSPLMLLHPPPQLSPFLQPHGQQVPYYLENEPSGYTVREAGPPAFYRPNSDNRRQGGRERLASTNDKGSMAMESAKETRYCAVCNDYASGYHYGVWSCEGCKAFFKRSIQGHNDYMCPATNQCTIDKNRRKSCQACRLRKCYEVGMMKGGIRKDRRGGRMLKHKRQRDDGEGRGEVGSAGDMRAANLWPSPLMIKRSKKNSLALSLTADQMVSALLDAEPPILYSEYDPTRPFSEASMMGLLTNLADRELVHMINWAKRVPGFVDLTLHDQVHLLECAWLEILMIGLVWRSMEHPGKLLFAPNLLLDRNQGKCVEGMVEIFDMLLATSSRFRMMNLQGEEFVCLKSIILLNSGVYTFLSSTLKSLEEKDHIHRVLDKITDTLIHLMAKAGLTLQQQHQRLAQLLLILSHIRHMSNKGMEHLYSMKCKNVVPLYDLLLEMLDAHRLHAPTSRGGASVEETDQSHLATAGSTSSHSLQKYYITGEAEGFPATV
assay.text: qHTS assay to identify small molecule antagonists of the estrogen receptor alpha (ER-alpha) signaling pathway using the BG1 cell line in the presence of 0.1 nM 17-beta-estradiol (AID 1259244); also: nearly all actives have a fitted effect of over 50% in size
assay.setup: VM7Luc4E2 (BG1) ERE-luciferase, antagonist mode, 0.1 nM E2, 22 h; series mostly up to 92.4 µM
Records with an inconclusive call do not appear. Activity calls are given as the source filed them. Calls come from the whole dose curve; as a rule, active = well fitted inhibition curve with a large enough effect in the repeat runs; inconclusive = weak or mixed curves; inactive = no such curve, though single readings can be large or run the other way.
Possible outcomes: active, inactive

compound: CCN(Cc1cccc(S(=O)(=O)O)c1)c1ccc(C(=C2C=CC(=[N+](CC)Cc3cccc(S(=O)(=O)O)c3)C=C2)c2ccccc2S(=O)(=O)[O-])cc1
label.class: active
//
compound: BrC(Br)C(Br)Br
label.class: inactive
//
compound: CC(C)(C)S
label.class: inactive
//
compound: CC(C)OC(=O)c1ccccc1C(=O)OC(C)C
label.class: inactive
//
compound: CC(=O)OCCC1CCCCC1
label.class: inactive
//
compound: CC(C)c1ccc(C#N)cc1
label.class: inactive
//
compound: CC(C)CC(O)CC(C)C
label.class: inactive
//
compound: CCN(CC)C(=O)/C(C#N)=C/c1cc(O)c(O)c([N+](=O)[O-])c1
label.class: inactive
//
compound: O=[N+]([O-])C1(Br)COCOC1
label.class: inactive
//
compound: COC1CCC=CO1 (stereo unspecified)
label.class: inactive
//
compound: CCOC(=O)c1c(N)sc2c1CCN(Cc1ccccc1)C2
label.class: active
//
compound: CC1CCc2nccnc21 (stereo unspecified)
label.class: inactive
//
compound: COc1ccc(-c2cc(=S)ss2)cc1
label.class: inactive
//
compound: Nc1cccc2c(N)cccc12
label.class: active
//
compound: CC(=O)c1ccc[nH]1
label.class: inactive
//
compound: O=C(O)CCS
label.class: inactive
//
compound: Cc1cccc2sc(N)nc12
label.class: inactive
//
compound: Cc1ccc(Nc2c(F)cccc2Cl)c(CC(=O)O)c1
label.class: inactive
//
compound: O=NN(CCCl)C(=O)NCCCl
label.class: inactive
//
compound: SCCc1cnccn1
label.class: inactive
//
compound: CCN(CC)CC(=O)Nc1c(C)cccc1C(=O)OC
label.class: inactive
